- Test system: DLD1 wild type
- test.details: Cell viability assay (CTG assay), DLD1 wild type cells
- Assay type: cell-based
- condition: Homo sapiens, DLD-1, 240 h; CellTiter Glo, read on Day 10, initial concentration 30 µM
compounds and their reported IC50
quantity.name: IC50

>>> recorded_result("COc1cnc(C(F)F)cc1-c1cc(-n2cccc(F)c2=O)ncc1C(=O)Nc1nc(-c2ccccc2)ns1")
"> 50000 nM"
>>> recorded_result("CCCc1nsc(NC(=O)c2cnc(-n3cccc(F)c3=O)cc2-c2cc(C(F)F)ncc2OC)n1")
"> 5000 nM"
>>> recorded_result("COc1cnc(C(F)F)cc1-c1cc(-n2cccc(F)c2=O)ncc1C(=O)Nc1nc(-c2ccccn2)ns1")
"19200 nM"
>>> recorded_result("COc1cnc(C(F)F)cc1-c1cc(-n2cccc(F)c2=O)ncc1C(=O)Nc1nc(-c2cnccn2)ns1")
"> 5000 nM"
>>> recorded_result("COc1cnc(C(F)F)cc1-c1cc(-n2cccc(F)c2=O)ncc1C(=O)Nc1nc(C2CC2)ns1")
"> 50000 nM"
>>> recorded_result("COc1nsc(NC(=O)c2cnc(-n3cccc(F)c3=O)cc2-c2cc(C(F)F)ncc2OC)n1")
"> 50000 nM"
>>> recorded_result("COc1cnc(C(F)F)cc1-c1cc(-n2cccc(F)c2=O)ncc1C(=O)Nc1nc(-c2cccnc2)ns1")
"> 50000 nM"
>>> recorded_result("COc1cnc(C(F)F)cc1-c1cc(-n2cccc(F)c2=O)ncc1C(=O)Nc1nc(-c2c(C)cnn2C)ns1")
"> 50000 nM"
>>> recorded_result("COc1cnc(C(F)F)cc1-c1cc(-n2cccc(F)c2=O)ncc1C(=O)Nc1nc(N2CC3CC(C2)N3C)ns1")
"> 5000 nM"
>>> recorded_result("COc1cnc(C(F)F)cc1-c1cc(-n2cccc(F)c2=O)ncc1C(=O)Nc1nc(C2CC2)cs1")
"> 50000 nM"
>>> recorded_result("COc1cnc(Cl)cc1-c1cc(-n2cccc(F)c2=O)ncc1C(=O)Nc1nc(C2CC2)ns1")
"> 5000 nM"
>>> recorded_result("COc1cnc(C(F)F)cc1-c1cc(-n2cccc(F)c2=O)ncc1C(=O)Nc1nc(N2CC3CC3C2)ns1 (stereo not drawn)")
"> 5000 nM"
>>> recorded_result("COc1cnc(C(F)F)cc1-c1cc(-n2cccc(F)c2=O)ncc1C(=O)Nc1nc(-c2c(C)ncn2C)ns1")
"> 5000 nM"
>>> recorded_result("COc1cnc(C(F)F)cc1-c1cc(-n2cccc(F)c2=O)ncc1C(=O)Nc1nc(N2CC3CC(C2)N3)ns1")
"> 5000 nM"
>>> recorded_result("COc1cnc(C(F)F)cc1-c1cc(-n2cccc(F)c2=O)ncc1C(=O)Nc1nc(NC(C)=O)ns1")
"> 5000 nM"
>>> recorded_result("COc1cnc(C(F)F)cc1-c1cc(-n2cccc(F)c2=O)ncc1C(=O)Nc1nccs1")
"> 50000 nM"
>>> recorded_result("COc1cnc(C(F)F)cc1-c1cc(-n2cccc(F)c2=O)ncc1C(=O)Nc1nc(-c2ccncc2)ns1")
"> 5000 nM"
>>> recorded_result("COc1cnc(C(F)F)cc1-c1cc(-n2cccc(F)c2=O)ncc1C(=O)Nc1nc(-c2ncccn2)ns1")
"4300 nM"
>>> recorded_result("COc1cnc(C(F)F)cc1-c1cc(-n2cccc(F)c2=O)ncc1C(=O)Nc1nc(C2CCC2)ns1")
"> 5000 nM"
>>> recorded_result("COc1cnc(C(F)F)cc1-c1cc(-n2cccc(F)c2=O)ncc1C(=O)Nc1nc(C)ns1")
"> 50000 nM"
>>> recorded_result("COc1cnc(C(F)F)cc1-c1cc(-n2cccc(F)c2=O)ncc1C(=O)Nc1nc(N2CC3(COC3)C2)ns1")
"> 5000 nM"
>>> recorded_result("COc1cnc(C(F)F)cc1-c1cc(-n2cccc(F)c2=O)ncc1C(=O)Nc1nc(-c2c(C)noc2C)ns1")
"> 5000 nM"
>>> recorded_result("COc1cnc(C(F)F)cc1-c1cc(-n2cccc(F)c2=O)ncc1C(=O)Nc1nc(-c2ccc(F)cc2)ns1")
"23300 nM"
>>> recorded_result("COc1cnc(C(F)F)cc1-c1cc(-n2cccc(F)c2=O)ncc1C(=O)Nc1nc(-c2ccncc2)cs1")
"> 50000 nM"
>>> recorded_result("COc1cnc(C(F)F)cc1-c1cc(-n2cccc(F)c2=O)ncc1C(=O)Nc1nc(N)ns1")
"> 5000 nM"
>>> recorded_result("COc1cnc(C(F)F)cc1-c1cc(-n2cccc(F)c2=O)ncc1C(=O)Nc1nc(C(C)(C)C)ns1")
"> 50000 nM"
>>> recorded_result("COc1cnc(C(F)F)cc1-c1cc(-n2cccc(F)c2=O)ncc1C(=O)Nc1nc(Cl)ns1")
"> 5000 nM"
>>> recorded_result("COc1cnc(Cl)cc1-c1cc(C)ncc1C(=O)Nc1nc(C2CC2)ns1")
"> 50000 nM"
>>> recorded_result("COc1cnc(C(F)F)cc1-c1cc(-n2cccc(F)c2=O)ncc1C(=O)Nc1nc(C(C)C)ns1")
"> 5000 nM"
>>> recorded_result("COc1cnc(C(F)F)cc1-c1cc(-n2cccc(F)c2=O)ncc1C(=O)Nc1ncns1")
"> 50000 nM"
